- Tested on: MDA-MB-231 breast
- method: NCI tumour cell line growth inhibition, 48 h
property: TGI (µM)

>>> number("COC(=O)/C=C1/OC(c2ccccc2)=C(Br)C1=O")
66.3
>>> number("CC(C)(C)c1ccc(OCCCCCCCN2CCNCC2)cc1")
3.02
>>> number("Cc1nc2ccccc2c(/C=C/c2ccc(F)cc2)c1C(=O)/C=C/c1ccccc1")
6.33
>>> number("CC1(c2cccc(C(F)(F)F)c2)CC(c2cccc(C(F)(F)F)c2)=C(C#N)C(=C(C#N)C#N)N1 (centres undefined)")
40.7
>>> number("CCSc1c2cc(OC)ccc2nc2ccc(OC)cc12")
44.6
>>> number("O=C1C=CC(=O)N1c1ccc2ccccc2c1")
33
>>> number("O=C1/C(=C/c2ccc([N+](=O)[O-])cc2)Oc2cc(O)ccc21")
73.9
>>> number("COc1cccc(/C=C2\\COc3ccc(O)c(O)c3C2=O)c1OC")
13.4
>>> number("COC(=O)/C=C1\\C(=O)Nc2ccc(Br)cc21")
6.64
>>> number("CCOC(=O)CCC(NC(=O)c1ccc(Oc2nc3cc(N)cc(N)c3nc2-c2ccccc2)cc1)C(=O)OCC (centres undefined)")
32.6

----------
- System: COLO 205 colon
- method: NCI tumour cell line growth inhibition, 48 h
Parameter: log10 of TGI. Scope: all listed entries.
property: log10 of TGI (log10 of the value in µM)

>>> number("CC(C)(C(=O)N(C(=O)N1CCN(c2ccccc2)CC1)S(=O)(=O)c1ccccc1)c1ccc(Cl)cc1")
1.63
>>> number("CC1Nc2ccccc2NC1C=C(C#N)C#N (stereo not given)")
1.54
>>> number("COc1cc2c(/C=C3/C(=O)Nc4cc(C)c(O)cc43)c(Cl)[nH]c2cc1C")
0.66
>>> number("COC(=O)/C=C1\\C(=O)Nc2ccc(Br)cc21")
0.54
>>> number("C1=C(c2ccccc2)NC2=N[C@H]3CCCC[C@@H]3N2C1c1ccccc1 (stereo not given in full)")
1.40
>>> number("Cc1cc(N)c2cc(NC(=O)/C=C\\c3ccccc3Cl)ccc2n1")
-0.22
>>> number("COc1cc(/C=C/C(=O)c2cccc(-n3cc(-c4ccccc4)[nH]c3=O)c2)ccc1O")
1.00
>>> number("CCN(CC)CCNc1ccc2nc(C)n3c4ccc(OC)cc4c(=O)c1c23")
1.11
>>> number("O=C1c2c[n+](Cc3ccccc3)ccc2-c2nc3ccccc3c3ccnc1c23")
0.05
>>> number("NC(=O)c1c(NC(=O)c2ccc(C(F)(F)F)cc2Cl)sc2c1CCC(=O)C2")
0.17
>>> number("COC(=O)C1=CCC[C@H]2[C@@]1(COC(C)=O)CC[C@@H](C)[C@]2(C)CC(=O)c1ccoc1")
1.44
>>> number("Cc1ccc(C(=O)c2[nH]c(NCc3ccccc3)c(C(=S)Nc3ccccc3)c2N)cc1")
1.26
>>> number("Cc1cc(O)c(C(O)c2ccccn2)cc1O (stereo not given)")
1.37
>>> number("CCCCCCCCCCCCNCCCc1ccccc1")
0.54
>>> number("COc1ccc(/C(=N/O)c2cc(F)c(F)c(OC)c2F)cc1O")
1.41
>>> number("COc1ccc(C)cc1NC(=S)N/N=C/c1ccco1")
1.82
>>> number("C=C(Cl)C(Cl)(CBr)CCCC(C)C (stereo not given)")
1.54
>>> number("COc1cc2c(cc1OCCCN1CCOCC1)N=C[C@@H]1CCCN1C2=O")
0.66

----------
Parameter: TGI. Scope: all listed entries.
- Test system: KM12 colon
- method: NCI tumour cell line growth inhibition, 48 h
property: TGI (µM)

>>> number("CCOC(=O)c1ccc(N[C@@H]2c3cc4c(cc3C(c3cc(OC)c(O)c(OC)c3)[C@H]3C(=O)OCC32)OCO4)cc1 (some centres not stated)")
5.29
>>> number("CCCCCCCCCCCCNCCCc1ccccc1")
3.13
>>> number("C[C@H]1CCC/C=C/[C@@H]2C[C@H](O)C[C@H]2[C@H](O)C(O)C(O)C(=O)O1 (some centres not stated)")
1.38

----------
- System: HT29 colon
- method: NCI tumour cell line growth inhibition, 48 h
Where a SMILES comes first, the peptide text is derived from it. [ ]: non-standard residue; d: D form. The star is where a group is joined. Phe(4-NO2) = N[CH](Cc1ccc([N+](=O)[O-])cc1)C(=O)O; Cbz = O=C(OCc1ccccc1)*
Parameter: TGI. Scope: all listed entries.
property: TGI

>>> result("CC1Nc2ccccc2NC1C=C(C#N)C#N (stereo not given)")
"36.9 µM"
>>> result("O=C(OCc1ccccc1)N1N=NC2C3CC(OCc4ccccc4)(OCc4ccccc4)C(O3)C21 (stereo not given)")
"> 100 µM"
>>> result("CC(=O)NC1=C(NCCO)C(=O)c2ccccc2C1=O")
"> 50 µM"
>>> result("CC[n+]1c(/C=C/c2cc(C(=O)OC)n3c2sc2ccccc23)sc2ccccc21")
"33 µM"
>>> result("Cc1ncc2c(n1)CCC1=C2OS(=O)(=O)CC1N(C)C (stereo not given)")
"> 100 µM"
>>> result("C#CCNC(CCCN=C(N)N)C(=O)O (stereo not given)")
"> 100 µM"
>>> result("C=C1C(=O)OC2/C=C(\\CO)C3OC3C3OC3(C)CC(OC(=O)/C(=C/C)COC(C)=O)C12 (stereo not given)")
"15.3 µM"
>>> result("C=CC(=O)N1CCN(c2nc(OC[C@@H]3CCCN3C)nc3c(F)c(-c4nc(N)cc(C)c4C(F)(F)F)c(Cl)cc23)[C@@H](C)C1")
"9.8 µM"
>>> result("O=C1C=C(c2ccccc2)NC1(c1ccccc1)c1cc(-c2ccccc2)[nH]c1-c1ccccc1 (stereo not given)")
"> 100 µM"
>>> result("COc1cc2c(/C=C3/C(=O)Nc4cc(C)c(O)cc43)c(Cl)[nH]c2cc1C")
"5.31 µM"
>>> result("O=C(NC1C(=O)NC(CCc2ccccc2)NC1=O)OCc1ccccc1 (stereo not given)")
"> 100 µM"
>>> result("CSc1cc(Cl)c(C(=O)Nc2ccccc2)cc1S(=O)(=O)n1cc[nH]c1=O")
"> 100 µM"
>>> result("COC(=O)/C=C1\\C(=O)Nc2ccc(Br)cc21")
"3.68 µM"
>>> result("COc1cccc(C2c3cc4c(cc3OC(N3CCCC3)C2c2ccccc2)OCO4)c1O (stereo not given)")
"26.2 µM"
>>> result("Nc1ccccc1SC(CC(=O)c1ccccc1)c1c(Cl)cccc1Cl (stereo not given)")
"5.03 µM"
>>> result("CS(C)(=O)=Nn1c(=O)n2n(c1=O)[C@H]1CC[C@@H]2C1")
"> 100 µM"
>>> result("NNC(=S)N/N=C(\\c1nc2ccc(Cl)cc2[nH]c1=O)C(O)c1cccc([N+](=O)[O-])c1 (stereo not given)")
"> 50.9 µM"
>>> result("CCOC(=O)C1Cc2ccc(C)cc2C1=O (stereo not given)")
"> 100 µM"
>>> result("CC(=O)CC(=O)Nc1ccc(OS(N)(=O)=O)cc1")
"> 100 µM"
>>> result("O=C(N/N=C\\c1ccc([N+](=O)[O-])cc1)Nc1ccc2ccccc2c1")
"72.2 µM"
>>> result("CCOC(=O)c1ccc(N[C@@H]2c3cc4c(cc3C(c3cc(OC)c(O)c(OC)c3)[C@H]3C(=O)OCC32)OCO4)cc1 (stereo not given in full)")
"6.92 µM"
>>> result("COc1cccc2c1C(=O)c1c(O)c3c(c(O)c1C2=O)C[C@@](O)(C(=O)CO)C[C@@H]3OC1CC2C(OCN2CN2COC3C(C)OC(O[C@H]4C[C@](O)(C(=O)CO)Cc5c(O)c6c(c(O)c54)C(=O)c4c(OC)cccc4C6=O)CC32)C(C)O1 (stereo not given in full)")
"0.115 µM"
>>> result("COc1cnc2oc3ccc(O)cc3c2c1-c1ccccc1")
"> 100 µM"
>>> result("COc1cc2c(cc1OCCCN1CCN(CCCOc3cc4c(cc3OC)C(=O)N3C[C@H](F)C[C@H]3C=N4)CC1)N=C[C@@H]1C[C@@H](F)CN1C2=O")
"> 37.2 µM"
>>> result("COC(=O)C1=CCC[C@H]2[C@@]1(COC(C)=O)CC[C@@H](C)[C@]2(C)CC(=O)c1ccoc1")
"> 50 µM"
>>> result("Nc1nc(N)c2ncn(Cc3ccccc3CO)c2n1")
"> 100 µM"
>>> result("CN1C=C(C(N)=O)Cc2ccsc21")
"> 100 µM"
>>> result("CCn1cnc(C[C@H](NC(=O)[C@@H](NC(=O)Nc2cc(C(F)(F)F)cc(C(F)(F)F)c2)C(C)(C)C)C(=O)OC)c1")
"> 10 µM"
>>> result("COc1ccc(-c2cc(-c3ccco3)c(C#N)c(=O)n2C2OC(COC(C)=O)C(OC(C)=O)C(OC(C)=O)C2OC(C)=O)cc1 (stereo not given)")
"> 100 µM"
>>> result("O=C1NCC2(CCN(CC3COc4ccccc4O3)CC2)N1c1ccccc1 (stereo not given)")
"> 100 µM"
>>> result("COc1ccc(/C(=N/O)c2cc(F)c(F)c(OC)c2F)cc1O")
"65.4 µM"
>>> result("Cc1ccc(C)c(NC(=O)C(=O)C(C2C(C)CC(=O)C2CC(=O)O)[N+](=O)[O-])c1 (stereo not given)")
"> 100 µM"
>>> result("CCOC(=O)CCC(NC(=O)OCc1ccccc1)C(=O)NC(CCC(=O)OCC)C(=O)NC(CCC(=O)OCC)C(=O)NC(CCC(=O)OCC)C(=O)NC(CCC(=O)OCC)C(=O)NC(Cc1ccc([N+](=O)[O-])cc1)C(=O)NC(CCC(=O)OCC)C(=O)NC(CCC(=O)OCC)C(=O)NC(CCC(=O)OCC)C(=O)NC(CCC(=O)OCC)C(=O)NC(CCC(=O)OCC)C(=O)OCC (stereo not given) (Cbz-E(OEt)E(OEt)E(OEt)E(OEt)E(OEt)[Phe(4-NO2)]E(OEt)E(OEt)E(OEt)E(OEt)E(OEt)-OEt; configuration not given here)")
"> 50 µM"
>>> result("C(#Cc1ccccc1C#Cc1cnccn1)c1cnccn1")
"> 100 µM"
>>> result("CC1=CC2=C(C=O)C(=O)[C@](C)(O)[C@@H](O)C2=CO1")
"> 100 µM"
